target: furin, P09958; experiment: furin cleavage Z-score vs untreated control; higher = more cleavage, active = 3.5 or more, inactive = 1 or less, 8 variable residues between constant flanks; conditions: 30 min;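 note: purified furin at 1:10 enzyme:substrate in 50 mM HEPES pH 7.5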
Sequence (P09958 whole entry): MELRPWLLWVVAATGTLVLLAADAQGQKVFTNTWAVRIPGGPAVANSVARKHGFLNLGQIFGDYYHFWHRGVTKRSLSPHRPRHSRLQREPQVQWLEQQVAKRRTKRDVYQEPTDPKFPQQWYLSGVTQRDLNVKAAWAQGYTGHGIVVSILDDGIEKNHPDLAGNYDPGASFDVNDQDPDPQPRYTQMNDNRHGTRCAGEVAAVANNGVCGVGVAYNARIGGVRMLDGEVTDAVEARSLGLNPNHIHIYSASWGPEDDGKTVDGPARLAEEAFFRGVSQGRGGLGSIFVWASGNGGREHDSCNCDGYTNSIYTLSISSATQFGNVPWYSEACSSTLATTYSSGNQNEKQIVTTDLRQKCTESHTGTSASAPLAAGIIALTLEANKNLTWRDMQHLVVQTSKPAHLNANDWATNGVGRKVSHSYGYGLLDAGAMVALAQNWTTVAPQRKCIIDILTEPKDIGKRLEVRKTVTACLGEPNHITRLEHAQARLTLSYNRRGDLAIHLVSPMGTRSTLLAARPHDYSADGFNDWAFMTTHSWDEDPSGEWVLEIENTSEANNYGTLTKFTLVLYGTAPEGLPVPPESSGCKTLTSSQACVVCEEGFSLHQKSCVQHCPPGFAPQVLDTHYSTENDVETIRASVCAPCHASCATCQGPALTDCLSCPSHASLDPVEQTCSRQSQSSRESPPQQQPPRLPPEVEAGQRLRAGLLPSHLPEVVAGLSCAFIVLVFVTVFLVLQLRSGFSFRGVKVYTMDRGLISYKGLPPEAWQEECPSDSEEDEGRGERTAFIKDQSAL
This is one part of the list. No count for the full screen is at hand.
Lab note: assign the record to one of active, inactive

q: For CAARLIVFPDAGNASASA [HC1449] , what call appears in the results of this test?
a: inactive

q: For CAPSLKATCTAGNASASA [HC1265] , what call appears in the results of this test?
a: inactive

q: For CAHFSRQKRSAGNASASA [FS-535] , what call appears in the results of this test?
a: active

q: For CAYRHRKKRNAGNASASA [FS-902] , what call appears in the results of this test?
a: inactive

q: For CAEHTTPCSGAGNASASA [HC1975] , what call appears in the results of this test?
a: inactive

q: For CATTPCCGSWAGNASASA [HC74] , what call appears in the results of this test?
a: inactive

q: For CAVQAWKSKKAGNASASA [HC1473] , what call appears in the results of this test?
a: inactive

q: For CAKKNKRNTNAGNASASA [HC165] , what call appears in the results of this test?
a: active

q: For CAHPLRPAREAGNASASA [FS-1210] , what call appears in the results of this test?
a: active

q: For CAPQKKNKRNAGNASASA [HC164] , what call appears in the results of this test?
a: active

q: For CAQPSRQKRSAGNASASA [FS-480] , what call appears in the results of this test?
a: active

q: For CASPSGQKRSAGNASASA [FS-723] , what call appears in the results of this test?
a: inactive

q: For CAAGARKKRAAGNASASA [FS-970] , what call appears in the results of this test?
a: active
